Measured values drawn from patent US20260234242A1 for this set.

Molecular target: T1, human CDH6 on tumor cells (OVCAR3 cells, PA-1 cells) (human, UniProt P55285 54-790)
T1 sequence: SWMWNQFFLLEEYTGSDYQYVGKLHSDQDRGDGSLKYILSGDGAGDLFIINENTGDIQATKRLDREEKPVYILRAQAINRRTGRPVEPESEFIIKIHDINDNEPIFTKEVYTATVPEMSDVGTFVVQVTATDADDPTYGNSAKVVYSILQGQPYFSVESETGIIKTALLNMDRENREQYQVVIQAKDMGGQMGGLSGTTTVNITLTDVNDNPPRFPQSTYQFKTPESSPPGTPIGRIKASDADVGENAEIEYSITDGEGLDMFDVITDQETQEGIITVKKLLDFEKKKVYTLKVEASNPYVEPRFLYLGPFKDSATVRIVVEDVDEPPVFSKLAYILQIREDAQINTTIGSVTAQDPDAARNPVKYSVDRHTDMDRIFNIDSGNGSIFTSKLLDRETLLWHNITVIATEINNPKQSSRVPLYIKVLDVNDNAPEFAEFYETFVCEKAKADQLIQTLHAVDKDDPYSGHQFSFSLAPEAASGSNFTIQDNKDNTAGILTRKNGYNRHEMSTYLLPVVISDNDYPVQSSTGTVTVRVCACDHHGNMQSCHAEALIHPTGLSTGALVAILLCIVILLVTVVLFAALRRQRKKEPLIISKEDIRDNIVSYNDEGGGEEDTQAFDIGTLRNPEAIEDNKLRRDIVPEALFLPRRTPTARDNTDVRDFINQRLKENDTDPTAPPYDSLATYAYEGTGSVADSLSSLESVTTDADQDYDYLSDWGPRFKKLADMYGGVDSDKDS
Test: FACS, OVCAR3 cells
assay_readout: EC50 (nM)
Answers are plain numbers, in nM.

| binder | EC50 (nM) |
| --- | --- |
| hCDH6-1-H4L3 (antibody, V domains shown, Humanized) VH: EVQLVQSGAEVKKPGSSVKVSCKASGYTFTNYWMHWVRQRPGQGLEWMGDIDPSHSETHYTQKFKDRVTITVDKSTSTAYMELSSLRSEDTAVYYCARGDLGRFDYWGQGTTVTVSS VL: DIQMTQSPSSLSASVGDRVTITCRASESVSIHGTHLMHWYQQKPGKPPKLLIYAASNLESGVPSRFSGSGSETDFTFTISSLQPEDIATYYCQQSFEDPWTFGGGTKVEIK | 0.162 |

// next item, EC50 requested
Input: Fill in the blank: the reported EC50 of hCDH6-1-H1L1 (antibody, V domains shown, Humanized) VH: EVQLVQSGAEVKKPGSSVKVSCKASGYTFSNYWMHWVRQAPGQGLEWMGDIDPSHSETHYTQKFKDRVTITVDKSTSTAYMELSSLRSEDTAVYYCARGDLGRFDYWGQGTTVTVSS VL: DIVMTQSPDSLAVSLGERATINCRASESVSIHGTHLMHWYQQKPGQPPKLLIYAASNLESGVPDRFSGSGSETDFTLTISSLQAEDVAVYYCQQSFEDPWTFGGGTKVEIK is ____.
Output: 0.166
